Let's look at some compounds and their measured IC50.
Tested System: EHMT2 (Homo sapiens)
Construct: host or cells: MDA-MB-231
Sequence (Q96KQ7 1-1210): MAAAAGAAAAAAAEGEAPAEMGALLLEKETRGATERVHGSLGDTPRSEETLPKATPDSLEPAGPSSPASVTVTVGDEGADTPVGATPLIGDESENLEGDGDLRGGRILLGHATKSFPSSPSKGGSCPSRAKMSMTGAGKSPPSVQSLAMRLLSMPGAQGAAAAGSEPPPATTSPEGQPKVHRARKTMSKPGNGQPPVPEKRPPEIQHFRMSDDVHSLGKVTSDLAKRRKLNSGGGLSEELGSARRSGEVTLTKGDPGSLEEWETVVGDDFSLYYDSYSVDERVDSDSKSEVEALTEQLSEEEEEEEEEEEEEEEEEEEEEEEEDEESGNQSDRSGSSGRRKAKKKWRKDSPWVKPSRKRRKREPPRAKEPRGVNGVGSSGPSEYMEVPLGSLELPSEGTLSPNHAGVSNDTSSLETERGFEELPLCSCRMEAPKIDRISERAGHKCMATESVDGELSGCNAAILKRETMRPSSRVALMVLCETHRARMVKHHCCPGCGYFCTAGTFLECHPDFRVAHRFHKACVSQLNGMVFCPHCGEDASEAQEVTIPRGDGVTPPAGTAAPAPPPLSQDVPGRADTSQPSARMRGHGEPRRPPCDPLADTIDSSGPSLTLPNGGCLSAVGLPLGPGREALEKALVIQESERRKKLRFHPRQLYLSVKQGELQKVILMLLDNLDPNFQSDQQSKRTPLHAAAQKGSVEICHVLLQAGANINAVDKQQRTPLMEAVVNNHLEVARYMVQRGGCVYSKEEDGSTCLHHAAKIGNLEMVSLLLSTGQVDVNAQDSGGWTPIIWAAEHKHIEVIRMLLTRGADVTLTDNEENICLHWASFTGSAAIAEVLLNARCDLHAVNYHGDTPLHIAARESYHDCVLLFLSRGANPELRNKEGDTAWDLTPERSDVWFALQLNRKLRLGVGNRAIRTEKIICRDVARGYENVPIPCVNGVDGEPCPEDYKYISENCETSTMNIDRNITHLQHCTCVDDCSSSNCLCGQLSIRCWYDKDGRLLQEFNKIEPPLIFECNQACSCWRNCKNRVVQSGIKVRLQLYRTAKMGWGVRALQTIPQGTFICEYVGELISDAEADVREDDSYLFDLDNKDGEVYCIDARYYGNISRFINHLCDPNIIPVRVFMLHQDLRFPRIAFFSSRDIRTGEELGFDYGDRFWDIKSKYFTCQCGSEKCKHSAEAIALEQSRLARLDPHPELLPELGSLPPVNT
Protocol Text: MDA-MB-231 H3K9me2 in-cell Western assay (EHMT2 ICW)
Type: cell-based
Settings: Table VII; read-out: EHMT2 ICW IC50

Using the record for CNc1ccnc(Nc2ccc(OC)c(OCC(C)CN3CCC3)c2)n1 (stereo not drawn) , state its measured IC50.
100 to 1000 nM
